Reported binding in ELISA relative to parental Fab values follow for various binders
- ASSAYED_SYSTEM: T1, human glycophorin A on human red blood cells or red blood cell membranes (human, UniProt P02724 20-150)
- T1 construct: whole, on cells; also called hRBC; human RBC membranes
- T1 sequence (looked up): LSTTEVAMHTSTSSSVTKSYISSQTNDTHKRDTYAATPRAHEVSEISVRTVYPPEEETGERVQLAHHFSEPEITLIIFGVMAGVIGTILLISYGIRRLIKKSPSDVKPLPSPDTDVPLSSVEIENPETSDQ
- METHOD_DESCRIPTION: ELISA, Fab on coated human RBC membranes

>>> meas_value("TPP-5338, Hu6C12-24 Fab variant VH: (E1Q, I48M, L70M, T72R, K74T, R84S, D89E) (Fab, V domains shown, Built on the parental Fab TPP-4935) VH: QVQLVQSGAEVKKPGASVKVSCKASGYTFTTYTIHWVRQAPGQGLEWMGYINPSSDYTRYNPKFKDRVTMTRDTSTSTAYMELSSLRSEDTAVYYCQTGTRDYWGQGTTVTVSS VL: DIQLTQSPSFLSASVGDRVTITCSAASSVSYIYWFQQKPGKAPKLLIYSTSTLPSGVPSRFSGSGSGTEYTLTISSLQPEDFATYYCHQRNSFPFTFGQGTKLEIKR")
"0.5 relative to parental Fab"
>>> meas_value("TPP-5697, Hu6C12-24 Fab variant VH: (D66G, L70M, T72R) (Fab, V domains shown, Built on the parental Fab TPP-4935) VH: EVQLVQSGAEVKKPGASVKVSCKASGYTFTTYTIHWVRQAPGQGLEWIGYINPSSDYTRYNPKFKGRVTMTRDKSTSTAYMELRSLRSDDTAVYYCQTGTRDYWGQGTTVTVSS VL: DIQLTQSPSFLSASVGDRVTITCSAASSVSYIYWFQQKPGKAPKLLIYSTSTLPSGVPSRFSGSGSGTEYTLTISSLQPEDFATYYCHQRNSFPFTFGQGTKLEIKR")
"1.1 relative to parental Fab"
>>> meas_value("TPP-5835, Hu6C12-24 Fab variant VL: (S24R, A26S, S49A, P54Q, F95Y); VH: (I48M, L70M) (Fab, V domains shown, Built on the parental Fab TPP-4935) VH: EVQLVQSGAEVKKPGASVKVSCKASGYTFTTYTIHWVRQAPGQGLEWMGYINPSSDYTRYNPKFKDRVTMTTDKSTSTAYMELRSLRSDDTAVYYCQTGTRDYWGQGTTVTVSS VL: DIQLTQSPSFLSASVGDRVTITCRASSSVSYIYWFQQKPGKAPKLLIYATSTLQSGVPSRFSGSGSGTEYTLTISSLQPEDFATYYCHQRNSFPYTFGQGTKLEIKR")
"10.3 relative to parental Fab"

Note down binding in ELISA relative to parental Fab recorded for TPP-5678, Hu6C12-24 Fab variant VH: (I48M, D66G, L70M, T72R) (Fab, V domains shown, Built on the parental Fab TPP-4935) VH: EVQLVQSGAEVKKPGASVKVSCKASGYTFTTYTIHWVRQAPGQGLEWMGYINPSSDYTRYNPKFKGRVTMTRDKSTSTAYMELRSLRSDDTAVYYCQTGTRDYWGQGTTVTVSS VL: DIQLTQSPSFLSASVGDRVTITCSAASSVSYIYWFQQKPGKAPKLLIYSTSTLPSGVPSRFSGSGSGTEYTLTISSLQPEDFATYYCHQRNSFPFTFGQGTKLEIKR
0.8 relative to parental Fab

Note down binding in ELISA relative to parental Fab recorded for TPP-5840, Hu6C12-24 Fab variant VL: (S24R, A26S, S49A, P54Q, F95Y); VH: (L70M, T72R) (Fab, V domains shown, Built on the parental Fab TPP-4935) VH: EVQLVQSGAEVKKPGASVKVSCKASGYTFTTYTIHWVRQAPGQGLEWIGYINPSSDYTRYNPKFKDRVTMTRDKSTSTAYMELRSLRSDDTAVYYCQTGTRDYWGQGTTVTVSS VL: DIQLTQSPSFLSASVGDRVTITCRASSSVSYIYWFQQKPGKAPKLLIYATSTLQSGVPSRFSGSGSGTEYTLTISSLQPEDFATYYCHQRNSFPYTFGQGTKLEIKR
6 relative to parental Fab
